biological target: Jak2 (UniProt O60674); assay: phosphorylation enrichment, bacterial display (enrichment ratio); higher = better substrate or ligand; peptides without Tyr show the background;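 further: 11-residue human phosphosite peptides and single-mutation variants displayed on the E. coli surface, counted by deep sequencing, each peptide's frequency after selection divided by its frequency in the unselected input library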;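 further: frequency after pTyr selection over input frequency; kinase dosed for 20-30% of maximal phosphorylation in three min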
Sequence (O60674 whole entry, looked up): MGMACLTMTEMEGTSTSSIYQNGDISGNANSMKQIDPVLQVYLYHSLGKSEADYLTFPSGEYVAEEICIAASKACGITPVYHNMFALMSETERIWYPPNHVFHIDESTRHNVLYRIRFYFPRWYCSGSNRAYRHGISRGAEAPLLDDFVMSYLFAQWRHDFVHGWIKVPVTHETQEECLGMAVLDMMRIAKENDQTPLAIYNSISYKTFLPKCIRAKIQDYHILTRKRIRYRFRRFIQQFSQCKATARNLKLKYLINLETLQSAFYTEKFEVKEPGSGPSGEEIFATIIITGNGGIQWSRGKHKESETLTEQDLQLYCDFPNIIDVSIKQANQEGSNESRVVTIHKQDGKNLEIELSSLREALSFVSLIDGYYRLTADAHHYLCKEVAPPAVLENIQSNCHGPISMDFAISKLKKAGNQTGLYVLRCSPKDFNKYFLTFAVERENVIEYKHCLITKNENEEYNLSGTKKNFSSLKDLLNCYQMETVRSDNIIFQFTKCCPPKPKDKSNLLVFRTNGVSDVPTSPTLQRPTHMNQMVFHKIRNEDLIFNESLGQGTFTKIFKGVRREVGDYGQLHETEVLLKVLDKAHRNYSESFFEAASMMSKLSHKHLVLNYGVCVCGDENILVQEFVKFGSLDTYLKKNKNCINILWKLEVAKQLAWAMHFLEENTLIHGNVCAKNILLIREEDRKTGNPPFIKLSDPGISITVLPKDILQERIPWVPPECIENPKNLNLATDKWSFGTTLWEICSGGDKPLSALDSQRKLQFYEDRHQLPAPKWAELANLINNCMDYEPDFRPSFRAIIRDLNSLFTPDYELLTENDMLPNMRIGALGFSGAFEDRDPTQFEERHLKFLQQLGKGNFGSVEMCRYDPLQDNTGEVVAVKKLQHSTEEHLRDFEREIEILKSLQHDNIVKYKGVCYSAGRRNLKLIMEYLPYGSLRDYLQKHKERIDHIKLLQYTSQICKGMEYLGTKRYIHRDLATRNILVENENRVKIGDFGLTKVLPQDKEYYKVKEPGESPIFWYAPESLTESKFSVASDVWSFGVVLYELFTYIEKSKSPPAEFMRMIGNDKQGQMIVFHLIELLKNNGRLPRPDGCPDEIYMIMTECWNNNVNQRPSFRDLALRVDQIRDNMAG
readout: phosphorylation enrichment
Would you mind answering with just the numeric figure?

Would you mind telling me what phosphorylation enrichment value was observed for TRSFDYTEGGD [FGF7_Y58_M59T_YF] ?
0.975

Would you mind telling me what phosphorylation enrichment value was observed for QPSPSYDSSGG [TCF12_Y70_R74G] ?
0.579

Continuing:
Would you mind telling me what phosphorylation enrichment value was observed for ATDLAYFLVRE [ASL_Y375_K380E_YF] ?
2.29

Would you mind telling me what phosphorylation enrichment value was observed for NHFKIHNLCAE [PTEN_Y68_Y68H_YF] ?
0.459

Would you mind telling me what phosphorylation enrichment value was observed for SVTCTYSPGLN [TP53_Y126_A129G] ?
1.46

Would you mind telling me what phosphorylation enrichment value was observed for NQILPYIEELV [PPP2R1B_Y341_K343E] ?
1.45

Would you mind telling me what phosphorylation enrichment value was observed for EWRSPYGLTPR [GRIN3B_Y601] ?
0.459

Would you mind telling me what phosphorylation enrichment value was observed for EEQKKNFNAMK [SCN5A_Y1494_Y1494N_YF] ?
0.691

Would you mind telling me what phosphorylation enrichment value was observed for TMKSRYMELFD [BBS2_Y644_YF] ?
0.71

###

target: FGFR1 (UniProt P11362); test: phosphorylation enrichment, bacterial display (enrichment ratio); higher = better substrate or ligand; peptides without Tyr show the background
Sequence (P11362 whole entry, looked up): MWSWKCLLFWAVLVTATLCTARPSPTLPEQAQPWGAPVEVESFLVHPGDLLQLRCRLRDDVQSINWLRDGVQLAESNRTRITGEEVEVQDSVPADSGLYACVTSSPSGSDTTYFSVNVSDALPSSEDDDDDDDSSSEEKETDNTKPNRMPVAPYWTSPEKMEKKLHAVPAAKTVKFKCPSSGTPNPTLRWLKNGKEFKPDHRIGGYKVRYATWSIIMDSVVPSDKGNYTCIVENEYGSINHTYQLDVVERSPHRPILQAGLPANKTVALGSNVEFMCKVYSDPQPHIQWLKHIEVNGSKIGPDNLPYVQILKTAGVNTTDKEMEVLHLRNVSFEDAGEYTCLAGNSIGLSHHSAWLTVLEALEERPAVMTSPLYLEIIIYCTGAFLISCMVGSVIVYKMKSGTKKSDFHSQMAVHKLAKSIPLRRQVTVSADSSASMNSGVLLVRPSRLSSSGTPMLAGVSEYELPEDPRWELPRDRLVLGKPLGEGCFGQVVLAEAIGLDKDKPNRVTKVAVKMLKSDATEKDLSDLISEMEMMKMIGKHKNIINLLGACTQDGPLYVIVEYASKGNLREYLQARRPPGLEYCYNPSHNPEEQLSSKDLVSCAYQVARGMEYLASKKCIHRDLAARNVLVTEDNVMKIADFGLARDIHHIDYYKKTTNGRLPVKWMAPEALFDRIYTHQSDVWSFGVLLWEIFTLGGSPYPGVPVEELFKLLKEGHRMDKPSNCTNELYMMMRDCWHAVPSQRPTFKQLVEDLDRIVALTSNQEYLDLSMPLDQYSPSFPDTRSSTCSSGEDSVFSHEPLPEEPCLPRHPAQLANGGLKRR
Threshold rule: phosphorylation enrichment greater than or equal to 0.6 is y; below that, n.

Before answering, review these 4 worked examples.
In plain terms: is recorded phosphorylation enrichment at least 0.6 for CTTIHYNFKCN [TP53_Y234_M237K_YF] ?
n

In plain terms: is recorded phosphorylation enrichment at least 0.6 for HTVVSYAEVRA [CLOCK_Y378] ?
y

In plain terms: is recorded phosphorylation enrichment at least 0.6 for PSDPSYEDMRE [BMPR1A_Y467] ?
y

In plain terms: is recorded phosphorylation enrichment at least 0.6 for KGEDFYYVTCH [FHL1_Y149_C150Y] ?
y

Continue with the sequence presented below.
In plain terms: is recorded phosphorylation enrichment at least 0.6 for VGTKRYMAPKV [ACVRL1_Y375_E379K] ?
n

###

molecular target: Fyn (UniProt P06241); assay: phosphorylation enrichment, bacterial display (enrichment ratio); higher = better substrate or ligand; peptides without Tyr show the background
Sequence (P06241 whole entry, looked up): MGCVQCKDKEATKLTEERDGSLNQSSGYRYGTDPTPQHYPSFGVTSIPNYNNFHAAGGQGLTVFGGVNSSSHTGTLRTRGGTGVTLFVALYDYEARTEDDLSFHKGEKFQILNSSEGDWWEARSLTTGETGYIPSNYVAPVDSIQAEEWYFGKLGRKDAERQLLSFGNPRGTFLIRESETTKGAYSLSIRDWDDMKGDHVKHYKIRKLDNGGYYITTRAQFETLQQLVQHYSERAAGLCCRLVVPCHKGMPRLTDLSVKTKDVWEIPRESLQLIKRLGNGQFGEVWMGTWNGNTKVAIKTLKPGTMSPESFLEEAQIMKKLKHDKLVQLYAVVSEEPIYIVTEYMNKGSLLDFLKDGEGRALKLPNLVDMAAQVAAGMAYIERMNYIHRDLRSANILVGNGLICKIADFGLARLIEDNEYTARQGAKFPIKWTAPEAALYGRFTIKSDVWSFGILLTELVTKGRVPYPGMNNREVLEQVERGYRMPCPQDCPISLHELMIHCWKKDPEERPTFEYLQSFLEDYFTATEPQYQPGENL
readout: phosphorylation enrichment
Would you mind answering with just the numeric figure?

Some sequences with recorded phosphorylation enrichment:
Give recorded phosphorylation enrichment with Fyn (UniProt P06241) for the following sequence: GHPFAYDWISI [BEST1_Y227_L224P_YF]
0.478

Give recorded phosphorylation enrichment with Fyn (UniProt P06241) for the following sequence: RFLTRYIFNRE [HLA-DQB1_Y62_V59L_YF]
0.606

Give recorded phosphorylation enrichment with Fyn (UniProt P06241) for the following sequence: DPFHVYIKNRV [KCNE3_Y95_YF]
0.415

Give recorded phosphorylation enrichment with Fyn (UniProt P06241) for the following sequence: PRIHSYRGHLW [VHL_Y112_R107P]
0.611

Give recorded phosphorylation enrichment with Fyn (UniProt P06241) for the following sequence: RSSKMYPKTRS [LPL_Y329_L330P]
0.502

Give recorded phosphorylation enrichment with Fyn (UniProt P06241) for the following sequence: EEGRVYVYHLS [ITGAE_Y549_R552H]
0.64

Give recorded phosphorylation enrichment with Fyn (UniProt P06241) for the following sequence: CERFSYYGMKA [SLC15A2_Y60]
0.689

Give recorded phosphorylation enrichment with Fyn (UniProt P06241) for the following sequence: NDTAGYFIIGG [SEL1L3_Y399]
0.582

Give recorded phosphorylation enrichment with Fyn (UniProt P06241) for the following sequence: ASGKFYAMKIL [AKT3_Y174_YF]
0.529

Give recorded phosphorylation enrichment with Fyn (UniProt P06241) for the following sequence: LIFVSYDDWDF [GRIN2A_Y281_S278F_YF]
1.02

Continuing:
Give recorded phosphorylation enrichment with Fyn (UniProt P06241) for the following sequence: IVKAFYVHARA [AIPL1_Y268_R270H_YF]
0.585

Give recorded phosphorylation enrichment with Fyn (UniProt P06241) for the following sequence: HNELYYEEAEH [VANGL1_Y345]
0.751

Give recorded phosphorylation enrichment with Fyn (UniProt P06241) for the following sequence: NAPNSYGRRLI [CDKN2A_Y44_P48L]
0.413
